system: MST3; construct: gene STK24; conditions: concentration: 1 μM, replicates: in singlicate; n = 1;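 further: KINOMEscan kinase panel screen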

{"COMPOUND": "CC(C)c1nc(-c2cccc(NS(=O)(=O)c3c(F)cccc3F)c2F)c(-c2ccnc(Nc3ccc(N4CCOCC4)nc3)n2)s1 [GSK2008607]", "%Inh / %": 63}
{"COMPOUND": "c1ccc(Oc2ccc(Nc3ccnc4cc(-c5ccc(CNCCN6CCOCC6)o5)ccc34)cc2)nc1 [GW567145]", "%Inh / %": 11}
{"COMPOUND": "COc1ccc(CNC(=O)NC2CCN(c3ccnc(Nc4ccc(F)cc4)n3)CC2)cc1 [GSK1379788]", "%Inh / %": 0}
{"COMPOUND": "COc1cccc(-c2ccc3c(NC(=O)C4CC4)n[nH]c3n2)c1 [SB-710903]", "%Inh / %": 0}
{"COMPOUND": "COc1ccc(Nc2nccc(N3CCC(NC(=O)Nc4cccc(OC)c4)C3)n2)cc1 (centres unmarked) [GSK1379742]", "%Inh / %": 0}
{"COMPOUND": "Cc1ccc(C)c(NC(=O)NC2CCN(c3ccnc(Nc4ccc(F)cc4)n3)C2)c1 (centres unmarked) [GSK1379720]", "%Inh / %": 0}
{"COMPOUND": "Nc1ncnc2c1nc(-c1ccccc1)n2-c1ccccc1 [SKF-97293]", "%Inh / %": 0}
{"COMPOUND": "Cc1cccc(NC(=O)Nc2ccc(Oc3ncnc4ccn(C)c34)cc2)c1", "%Inh / %": 0}

###

tested on: LKB1; construct: gene STK11; settings: concentration: 1 μM, replicates: in singlicate; n = 1
Lab note: cut-off is 9%. Strictly less in %Inh is true (1). Exactly 9% or more is false (0).

{"COMPOUND SMILES": "CN1CCN(Cc2cccc(-c3ccc4c(Nc5ccc(Oc6ccccc6)cc5)ccnc4c3)c2)CC1", "ANSWER LABEL": "false (0)"}
{"COMPOUND SMILES": "FC(F)(F)c1ccc(/C=C/c2cncnc2Nc2ccc3[nH]c(Cc4ccccc4)nc3c2)cc1", "ANSWER LABEL": "true (1)"}
{"COMPOUND SMILES": "COCCOCCOc1cc2ncc3c4ccc(C#N)cc4[nH]c3c2cc1OC", "ANSWER LABEL": "false (0)"}
{"COMPOUND SMILES": "CCn1c(-c2nonc2N)nc2c(C#CC(C)(C)O)ncc(OCCCCN)c21.O=C(O)C(F)(F)F.O=C(O)C(F)(F)F", "ANSWER LABEL": "true (1)"}
{"COMPOUND SMILES": "CC(=O)N1CCN(c2ccc(Nc3nccc(-c4sc(C(C)C)nc4-c4cccc(NS(=O)(=O)c5cccc(Cl)c5)c4)n3)cn2)CC1", "ANSWER LABEL": "true (1)"}
{"COMPOUND SMILES": "COc1ccc(CNC(=O)NC2CCN(c3ccnc(Nc4ccc(F)cc4)n3)CC2)cc1", "ANSWER LABEL": "true (1)"}
{"COMPOUND SMILES": "Clc1ccc(-c2nn3ncccc3c2-c2ccnc(Nc3ccc4c(c3)OCCO4)n2)cc1", "ANSWER LABEL": "true (1)"}
{"COMPOUND SMILES": "Cn1cc(-c2ccc3c(c2)CCN3C(=O)Cc2cccc(Cl)c2)c2c(N)ncnc21", "ANSWER LABEL": "true (1)"}
{"COMPOUND SMILES": "CNC(=O)c1ccccc1Nc1nc(Nc2ccc(N3CCOCC3)cc2)ncc1Cl.Cl", "ANSWER LABEL": "false (0)"}

###

Below, each of the molecules is paired with its reported %Inh value.
tested on: SYK; settings: concentration: 1 μM, replicates: in singlicate; n = 1
VALUE TYPE: %Inh (%)

{"MOLECULE": "COc1cc(Nc2ncc3c(C)nc(-c4cc5ccccc5[nH]4)n3n2)cc(OC)c1OC", "MEASUREMENT TARGET": "SYK", "UNITS TEXT": "%", "QUANTITATIVE READOUT": 53}
{"MOLECULE": "Cl.Cl.NCC(NCc1ccc(-c2ccnc3[nH]ccc23)s1)c1ccccc1 (stereo not shown)", "MEASUREMENT TARGET": "SYK", "UNITS TEXT": "%", "QUANTITATIVE READOUT": 23}
{"MOLECULE": "O=C(Nc1cccc(-c2nn3ncccc3c2-c2ccnc(Nc3ccccc3)n2)c1)c1c(F)cccc1F", "MEASUREMENT TARGET": "SYK", "UNITS TEXT": "%", "QUANTITATIVE READOUT": 37}
{"MOLECULE": "CCS(=O)(=O)c1ccc(OC)c(Nc2nccc(-c3c(-c4cccc(NC(=O)c5c(F)cccc5F)c4)nn4ncccc34)n2)c1", "MEASUREMENT TARGET": "SYK", "UNITS TEXT": "%", "QUANTITATIVE READOUT": 4}
{"MOLECULE": "Cl.c1ccc(-c2ccc3c(Nc4ccc5[nH]ncc5c4)ccnc3c2)nc1", "MEASUREMENT TARGET": "SYK", "UNITS TEXT": "%", "QUANTITATIVE READOUT": 27}
{"MOLECULE": "COc1cc(Nc2nccc(-c3c(-c4cccc(NC(=O)c5c(F)cccc5F)c4)nn4ncccc34)n2)cc(OC)c1OC", "MEASUREMENT TARGET": "SYK", "UNITS TEXT": "%", "QUANTITATIVE READOUT": 74}
{"MOLECULE": "Cc1occc1-c1ncc(OC[C@@H](N)Cc2c[nH]c3ccccc23)cc1-c1ccc2[nH]nc(C)c2c1.O=C(O)C(F)(F)F", "MEASUREMENT TARGET": "SYK", "UNITS TEXT": "%", "QUANTITATIVE READOUT": 0}

###

%Inh: recorded values
test system: MARK4; conditions: concentration: 1 μM, replicates: in singlicate; n = 1
VALUE TYPE: %Inh (%)

{"COMPOUND": "O=C(Nc1cccc(-c2nn3ccccc3c2-c2ccnc(Nc3cccc(C(F)(F)F)c3)n2)c1)c1c(F)cccc1F", "MEASUREMENT TARGET": "MARK4", "UNITS TEXT": "%", "QUANTITATIVE READOUT": 0}
{"COMPOUND": "COc1cccc(C2=C(Nc3ccc(Cl)c(C(=O)O)c3)C(=O)NC2=O)c1", "MEASUREMENT TARGET": "MARK4", "UNITS TEXT": "%", "QUANTITATIVE READOUT": 13}
{"COMPOUND": "CN1CCN(Cc2cccc(-c3ccc4c(Nc5ccc(Oc6ccccc6)cc5)ccnc4c3)c2)CC1", "MEASUREMENT TARGET": "MARK4", "UNITS TEXT": "%", "QUANTITATIVE READOUT": 0}
{"COMPOUND": "Cc1ccc(S(=O)(=O)Nc2ccc(Nc3nccc(Nc4cccc5[nH]ncc45)n3)cc2)cc1", "MEASUREMENT TARGET": "MARK4", "UNITS TEXT": "%", "QUANTITATIVE READOUT": 7}
{"COMPOUND": "Clc1ccc(-c2nn3ncccc3c2-c2ccnc(Nc3ccc4c(c3)OCCO4)n2)cc1", "MEASUREMENT TARGET": "MARK4", "UNITS TEXT": "%", "QUANTITATIVE READOUT": 0}
{"COMPOUND": "C[C@@H]1CC[C@@H](C(=O)Nc2ccccc2)CN1c1cc(-c2ccc3c(N)n[nH]c3c2)nc(N)n1", "MEASUREMENT TARGET": "MARK4", "UNITS TEXT": "%", "QUANTITATIVE READOUT": 0}
{"COMPOUND": "Cl.NC(=O)c1cccc(Nc2nccc(Nc3ccc(Oc4c(Cl)cccc4Cl)c(Cl)c3)n2)c1", "MEASUREMENT TARGET": "MARK4", "UNITS TEXT": "%", "QUANTITATIVE READOUT": 0}
{"COMPOUND": "Cc1ccc(F)c(C(=O)Nc2cccc(-c3nn4ccccc4c3-c3ccnc(Nc4cccc(F)c4)n3)c2)c1F", "MEASUREMENT TARGET": "MARK4", "UNITS TEXT": "%", "QUANTITATIVE READOUT": 14}
{"COMPOUND": "Cc1ccc(C)c(NC(=O)NC2CCN(c3ccnc(Nc4ccc(F)cc4)n3)C2)c1 (stereo not shown)", "MEASUREMENT TARGET": "MARK4", "UNITS TEXT": "%", "QUANTITATIVE READOUT": 0}
{"COMPOUND": "Fc1ccc(-c2ncn(C3CCNCC3)c2-c2ccnc(Oc3ccc(-c4ccccc4)cc3)n2)cc1", "MEASUREMENT TARGET": "MARK4", "UNITS TEXT": "%", "QUANTITATIVE READOUT": 25}
{"COMPOUND": "Nc1ncnc2c1nc(-c1ccccc1)n2-c1ccccc1", "MEASUREMENT TARGET": "MARK4", "UNITS TEXT": "%", "QUANTITATIVE READOUT": 33}
{"COMPOUND": "NCCCC(NC(=O)c1cc(Br)c(-c2ccnc3[nH]ccc23)s1)c1ccccc1.O=C(O)C(F)(F)F.O=C(O)C(F)(F)F (stereo not shown)", "MEASUREMENT TARGET": "MARK4", "UNITS TEXT": "%", "QUANTITATIVE READOUT": 4}
{"COMPOUND": "COc1cc(Nc2ncc3c(C)nc(-c4cc5ccccc5[nH]4)n3n2)cc(OC)c1OC", "MEASUREMENT TARGET": "MARK4", "UNITS TEXT": "%", "QUANTITATIVE READOUT": 22}
{"COMPOUND": "COc1cccc(NC(=O)NC2CCN(c3ccnc(Nc4cc(OC)c(OC)c(OC)c4)n3)C2)c1 (stereo not shown)", "MEASUREMENT TARGET": "MARK4", "UNITS TEXT": "%", "QUANTITATIVE READOUT": 0}
{"COMPOUND": "O=C(Nc1cccc(-c2nn3ncccc3c2-c2ccnc(Nc3ccccc3)n2)c1)c1c(F)cccc1F", "MEASUREMENT TARGET": "MARK4", "UNITS TEXT": "%", "QUANTITATIVE READOUT": 0}
{"COMPOUND": "COc1cc2c(cc1OCCN1CCNCC1)ncc1c3ccc(C#N)cc3[nH]c21", "MEASUREMENT TARGET": "MARK4", "UNITS TEXT": "%", "QUANTITATIVE READOUT": 0}
